target: galectin-3 (Homo sapiens (Human)); assay: Fluorescence anisotropy assay, inhibition of galectin / fluorescein tagged saccharide probe interaction
Sequence (P17931 whole entry): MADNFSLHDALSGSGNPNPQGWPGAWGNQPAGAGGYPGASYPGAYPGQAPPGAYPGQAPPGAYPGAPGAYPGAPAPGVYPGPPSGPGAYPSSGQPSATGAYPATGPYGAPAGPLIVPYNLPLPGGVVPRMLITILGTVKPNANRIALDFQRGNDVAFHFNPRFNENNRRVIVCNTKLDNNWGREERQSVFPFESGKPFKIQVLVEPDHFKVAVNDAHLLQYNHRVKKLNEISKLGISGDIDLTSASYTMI
Cut-off 20 nM on Kd: below means 1.0, at or above means 0.0.

>>> qualitative_label("CO[C@@H]1[C@@H](n2cc(-c3cc(F)c(F)c(F)c3)nn2)[C@@H](O)[C@@H](CO)O[C@@H]1Sc1cc(Br)ccc1C(=O)N1CCC1")
1.0

Qu. Kd strictly < 20 nM for this molecule? `CO[C@@H]1[C@@H](n2cc(-c3ccc(C)c(F)c3)nn2)[C@@H](O)[C@@H](CO)O[C@@H]1Sc1cc(Cl)cnc1C#N`
Ans. 1.0

Qu. Please answer likewise for `CO[C@@H]1[C@@H](n2cc(-c3cc(F)c(F)c(F)c3)nn2)[C@@H](O)[C@@H](CO)O[C@@H]1Sc1cc(Cl)cnc1-c1cncnc1`
Ans. 0.0

Qu. Please answer likewise for `CO[C@@H]1[C@@H](n2cc(-c3cc(F)c(Cl)c(F)c3)nn2)[C@@H](O)[C@@H](CO)O[C@@H]1Sc1cc(Br)cnc1C#N`
Ans. 0.0

Qu. Please answer likewise for COC1[C@@H](Sc2cc(Cl)c(C#N)nc2N2CC3(COC3)C2)OC(CO)[C@H](O)[C@@H]1n1cc(-c2cc(F)c(F)c(F)c2)nn1 (stereo partly drawn)
Ans. 0.0

Qu. Please answer likewise for `CO[C@@H]1[C@@H](n2cc(-c3cc(F)c(F)c(F)c3)nn2)[C@@H](O)[C@@H](CO)O[C@@H]1Sc1cc(Cl)cnc1-c1ccccn1`
Ans. 0.0

Values from patent US11447517B2
